Assay info: Metabolic stability in pooled human liver microsomes
Type: in vitro ADME
Run conditions: human liver microsomes 0.5 mg/mL, 1 uM, 37° C., NADPH
Entry flag: t if Metabolic Stability human (30 minutes): percent of prodrug metabolized to riluzole reaches 7%; f if it does not.

// below: answered compounds
>>> print(df.to_string())
                                   compound  category_label
0  N[C@@H](COCc1ccccc1)C(=O)Nc1nc2ccc(OC(F)(F)F)cc2s1 [Cpd 10]               t
1  C[C@H](N)C(=O)Nc1nc2ccc(OC(F)(F)F)cc2s1 [Cpd 7]               f

Q: Does N[C@@H](Cc1ccccc1)C(=O)Nc1nc2ccc(OC(F)(F)F)cc2s1 [Cpd 9] have a reported Metabolic Stability human (30 minutes): percent of prodrug metabolized to riluzole of at least 7%?
A: f

Q: Does CC(C)(C)OC(=O)CCC(=O)Nc1nc2ccc(OC(F)(F)F)cc2s1 [Cpd 22] have a reported Metabolic Stability human (30 minutes): percent of prodrug metabolized to riluzole of at least 7%?
A: t

Q: Does CNCCCCC(=O)Nc1nc2ccc(OC(F)(F)F)cc2s1 [Cpd 25] have a reported Metabolic Stability human (30 minutes): percent of prodrug metabolized to riluzole of at least 7%?
A: f

Q: Does NCCCCC(=O)Nc1nc2ccc(OC(F)(F)F)cc2s1 [Cpd 26] have a reported Metabolic Stability human (30 minutes): percent of prodrug metabolized to riluzole of at least 7%?
A: t

Q: Does COC(=O)Nc1nc2ccc(OC(F)(F)F)cc2s1 [Cpd 12] have a reported Metabolic Stability human (30 minutes): percent of prodrug metabolized to riluzole of at least 7%?
A: f

Q: Does COC(=O)CCC(=O)Nc1nc2ccc(OC(F)(F)F)cc2s1 [Cpd 21] have a reported Metabolic Stability human (30 minutes): percent of prodrug metabolized to riluzole of at least 7%?
A: t
